These data points were gathered from patent US20210317225A1.

TARGET SYSTEM: T1, Human CD137 (TNR9_Human) (human, UniProt Q07011 24-255)
T1 construct: Full-length human CD137 expressed on HEK293T-17, NF-kB/293/GFP-Luc or K562 cells, or native on T cells; also called hCD137 wt; 4-1BB
T1 sequence (Q07011 24-255): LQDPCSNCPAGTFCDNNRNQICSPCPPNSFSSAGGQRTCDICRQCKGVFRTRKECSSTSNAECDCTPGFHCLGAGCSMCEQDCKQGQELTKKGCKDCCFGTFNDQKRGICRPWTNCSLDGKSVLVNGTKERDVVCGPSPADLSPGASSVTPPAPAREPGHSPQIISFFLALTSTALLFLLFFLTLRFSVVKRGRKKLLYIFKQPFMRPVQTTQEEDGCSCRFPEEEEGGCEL
TEST: flow cytometry, HEK293-T17 cells transiently transfected with human CD137, antibody at 1 µg/mL, APC-labeled F(ab')2 secondary
RECORDED ENDPOINT: binding result

CD137 antibody clone 003 (rabbit) (antibody, human IgG1, kappa, V domains shown, also called Clone 3; CD137 clone 003) VH: QSVEESGGRLVTPGTPLTLTCTASGFTISSYHMIWVRQAPGEGLEWIGDIYGGTATTDYASWAKGRFTISKTSTTVDLKMTSLTTEDTATYFCARARYSGGSYANYVFNLWGQGTLVTVSS VL: DIVMTQTPASVEAAVGGTVTIKCQASQSISSYLAWYQQKPGQPPKLLIYRTSTLESGVPSRFKGSGSGTEFTLTISDLESADAATYYCQGYDWSSSNRYDNTFGGGTEVVVKR ... binds
CD137 antibody clone 002 (rabbit) (antibody, human IgG1, kappa, V domains shown, also called Clone 2; CD137 clone 002) VH: QSVEESGGRLVTPGTPLTLTCTVSGFSLTYYAVTWVRQPPGKGLEWIGVIYDNGATAFATWAKGRFTMSKNSTTVALKVTSPTTEDTATYFCARSANNAWSTYSNLWGQGTLVTVSS VL: DIVMTQTPSSVSAAVGGTVTINCQASEDISSYLSWYQQKLGQPPKLLIYKASTLESGVPSRFKGSGSGTEYTLTISDLESDDAATYYCQSYYSGSISGYGFVFGGGTGVVVKR ... binds
CD137 antibody clone 004 (rabbit) (antibody, human IgG1, kappa, V domains shown, also called Clone 4; CD137 clone 004) VH: QSLEESGGRLVTPGTPLTLTCTASGFSLSRYDMSWVRQAPGKGLEYIGVISSSGGTNYANWAKGRFTISKTSTTVDLKITSPTTEDTATYFCAREGDYWDFNLWGPGTLVTVSS VL: AQVLTQTPSSVSAAVGGTVTINCQASQSISNLLAWYQQKPGQPPKLLIYGASTLASGVPSRFSGSGSGTEFTLTISDLESDDAATYYCAGGFPGLDTVAAFGGGTEAVVTR ... binds
